assay: Drug absorption in Beagle dog at 0.5 mg/kg, po administered via gavage by HPLC-MS analysis; assay type: ADME, organism-based, Canis lupus familiaris; conditions: in vivo, read-out: Drug absorption

compound	unit spec	Fa
CCCC[C@](C)(CO)Nc1nc(N)nc2cc(F)cnc12 [SELGANTOLIMOD]	%	28

====

assay: Apparent permeability across basolateral to apical side in human Caco2 cells measured after 1 to 2 hrs by LC-MS/MS analysis; settings: Caco-2
Here, each record is paired with measured Papp B→A data.

compound structure string	Papp B→A, ×10⁻⁶ cm/s
CCCC[C@@](C)(CO)Nc1nc(N)nc2cccnc12	31
CCCC[C@](C)(CO)Nc1nc(N)nc2cc(C)cnc12	29
CCCC[C@](C)(CO)Nc1nc(N)nc2cc(F)cnc12	11
CCCC[C@](C)(CO)Nc1nc(N)nc2cccnc12	29
